Biological target: Histone-lysine N-methyltransferase EHMT2 (Homo sapiens)
Sequence (Q96KQ7 whole entry, the tested form may be a part): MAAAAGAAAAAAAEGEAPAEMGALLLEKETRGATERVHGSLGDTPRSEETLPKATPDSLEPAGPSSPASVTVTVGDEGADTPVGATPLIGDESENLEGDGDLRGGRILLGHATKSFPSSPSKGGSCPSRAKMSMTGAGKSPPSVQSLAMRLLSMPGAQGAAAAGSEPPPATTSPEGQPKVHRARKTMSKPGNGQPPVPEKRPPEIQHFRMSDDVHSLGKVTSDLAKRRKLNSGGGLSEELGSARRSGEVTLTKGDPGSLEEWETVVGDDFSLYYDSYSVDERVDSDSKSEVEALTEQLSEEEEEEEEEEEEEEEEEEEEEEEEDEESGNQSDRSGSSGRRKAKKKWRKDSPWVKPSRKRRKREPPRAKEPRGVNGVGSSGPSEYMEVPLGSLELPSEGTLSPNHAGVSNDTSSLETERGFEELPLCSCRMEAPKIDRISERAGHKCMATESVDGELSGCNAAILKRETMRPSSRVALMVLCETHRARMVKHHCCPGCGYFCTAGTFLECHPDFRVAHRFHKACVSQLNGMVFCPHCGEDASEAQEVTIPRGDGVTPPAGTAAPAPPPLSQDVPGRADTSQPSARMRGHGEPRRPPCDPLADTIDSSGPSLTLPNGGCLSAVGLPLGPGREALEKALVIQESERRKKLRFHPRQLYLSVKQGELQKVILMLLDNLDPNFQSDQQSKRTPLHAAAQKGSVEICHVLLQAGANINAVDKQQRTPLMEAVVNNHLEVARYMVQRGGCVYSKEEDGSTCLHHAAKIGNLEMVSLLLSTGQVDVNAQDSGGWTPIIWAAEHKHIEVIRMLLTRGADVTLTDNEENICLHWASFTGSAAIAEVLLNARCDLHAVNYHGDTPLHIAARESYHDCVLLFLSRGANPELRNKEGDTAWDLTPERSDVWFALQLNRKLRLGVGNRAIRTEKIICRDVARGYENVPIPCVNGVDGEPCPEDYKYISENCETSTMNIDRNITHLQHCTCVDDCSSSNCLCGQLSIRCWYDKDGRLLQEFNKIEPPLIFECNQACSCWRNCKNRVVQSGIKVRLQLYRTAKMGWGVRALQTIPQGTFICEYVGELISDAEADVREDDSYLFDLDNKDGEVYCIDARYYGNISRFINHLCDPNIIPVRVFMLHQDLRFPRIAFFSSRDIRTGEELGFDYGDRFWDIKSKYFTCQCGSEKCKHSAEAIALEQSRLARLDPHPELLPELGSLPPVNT
Test: Inhibition of G9a (unknown origin) using biotinylated-histone H3 (1 to 21 residues)/S-adenosyl-methionine as substrate/methyl donor after 3 hrs by AlphaScreen assay
pIC50 values, listed per item
// pIC50 here means minus log10 of the molar concentration (mol/L)

# SMILES CODE, RECORDED RESULT
data = [
    ("CN(C)CCNc1cc(N2CCN(c3ncccn3)CC2)c2noc3c2c1C(=O)c1ccccc1-3", 5.42),
    ("CN1CCCN(c2cc(NCCN3CCCC3)c3c4c(onc24)-c2ccccc2C3=O)CC1", 5.40),
    ("O=C1c2ccccc2-c2onc3c(N4CCN(c5ccccc5)CC4)cc(NCCN4CCCC4)c1c23", 5.49),
]

Qu. Return pIC50 (reported value) for this compound: O=C1c2ccccc2-c2onc3c(N4CCCC4)cc(NCCN4CCCC4)c1c23
Ans. 5.91

----------
Biological target: Histone-lysine N-methyltransferase EHMT2 (Homo sapiens)
Experiment: Inhibition of G9a (unknown origin)
REPORTED PROPERTY: pEC50
API: returns pEC50 as number; meaning -log10 of concentration in mol/L.

Qu. Name the recorded pEC50 of the compound listed here: COC(=O)c1ccc2c(c1)nc(NC(=O)c1ccccc1)n2CCCc1ccccc1
Ans. 5.30

----------
Test system: Mus musculus
Assay: Half life in mouse at 10 mg/kg, iv after 2 mins to 24 hrs by LC-MS/MS analysis
Details: in vivo
REPORTED PROPERTY: half-life (h)
Value expressed in h; do not type the unit.

Qu. // fetch half-life; item: O=C1c2ccccc2-c2onc3c(N4CCCCC4)cc(NCCN4CCCC4)c1c23 ; system: Mus musculus
Ans. 6.9

----------
System: Mus musculus
Assay: Oral bioavailability in mouse at 10 mg/kg after 5 mins to 24 hrs by LC-MS/MS analysis
Conditions: in vivo
REPORTED PROPERTY: bioavailability (%)
Give the value, in units of %, as a plain number.

Qu. Look up and report bioavailability, with Mus musculus as system, for O=C1c2ccccc2-c2onc3c(N4CCCCC4)cc(NCCN4CCCC4)c1c23
Ans. 55.5

----------
Test system: Mus musculus
Assay: Volume of distribution in mouse at 10 mg/kg, iv after 2 mins to 24 hrs by LC-MS/MS analysis
Conditions: in vivo
REPORTED PROPERTY: Vd (L/kg)
Give just the numeric value; L/kg need not be written.

Qu. Respond only with Vd recorded for O=C1c2ccccc2-c2onc3c(N4CCCCC4)cc(NCCN4CCCC4)c1c23
Ans. 80.2

----------
Tested on: Mus musculus
Experiment: Cmax in mouse at 10 mg/kg, po after 5 mins to 24 hrs by LC-MS/MS analysis
Settings: in vivo
REPORTED PROPERTY: Cmax (ng/mL)
Please state the figure in ng/mL; there is no need to write the unit.

Qu. Please indicate Cmax recorded for O=C1c2ccccc2-c2onc3c(N4CCCCC4)cc(NCCN4CCCC4)c1c23
Ans. 70.7

----------
Test system: Mus musculus
Test: Cmax in mouse at 10 mg/kg, iv after 2 mins to 24 hrs by LC-MS/MS analysis
Conditions: in vivo
REPORTED PROPERTY: Cmax (ng/mL)
I only need the number, in ng/mL, no unit after it.

Qu. Give Cmax for the following compound: O=C1c2ccccc2-c2onc3c(N4CCCCC4)cc(NCCN4CCCC4)c1c23
Ans. 188
